system.under.test: UniProt P00533
Examples of molecules with documented IC50 follow.
# output: bare number, implied unit nM

C=CC(=O)NCCSc1nc(-c2ccc(F)cc2)c(-c2ccnc(Nc3ccccc3)c2)[nH]1 | 1.6
C=CC(=O)N1CCC(Sc2nc(-c3ccc(F)cc3)c(-c3ccnc(Nc4ccccc4)c3)[nH]2)C1 (centres undefined) | 217

Sample "C=CC(=O)NCc1cccc(Nc2cc(-c3[nH]c(SC)nc3-c3ccc(F)cc3)ccn2)c1" , system: UniProt P00533. Its IC50 is 16

Sample "NCCSc1nc(-c2ccc(F)cc2)c(-c2ccnc(Nc3ccccc3)c2)[nH]1" , system: UniProt P00533. Its IC50 is 4.8

Sample "CCC(=O)Nc1cccc(Nc2cc(-c3[nH]c(SC)nc3-c3ccc(F)cc3)ccn2)c1" , system: UniProt P00533. Its IC50 is 22

Sample "N#CCCSc1nc(-c2ccc(F)cc2)c(-c2ccnc(Nc3ccccc3)c2)[nH]1" , system: UniProt P00533. Its IC50 is 109

----------
system.under.test: Epidermal growth factor receptor (Homo sapiens, UniProt P00533, L858R)
Sequence (P00533 25-1210 L858R limits assumed): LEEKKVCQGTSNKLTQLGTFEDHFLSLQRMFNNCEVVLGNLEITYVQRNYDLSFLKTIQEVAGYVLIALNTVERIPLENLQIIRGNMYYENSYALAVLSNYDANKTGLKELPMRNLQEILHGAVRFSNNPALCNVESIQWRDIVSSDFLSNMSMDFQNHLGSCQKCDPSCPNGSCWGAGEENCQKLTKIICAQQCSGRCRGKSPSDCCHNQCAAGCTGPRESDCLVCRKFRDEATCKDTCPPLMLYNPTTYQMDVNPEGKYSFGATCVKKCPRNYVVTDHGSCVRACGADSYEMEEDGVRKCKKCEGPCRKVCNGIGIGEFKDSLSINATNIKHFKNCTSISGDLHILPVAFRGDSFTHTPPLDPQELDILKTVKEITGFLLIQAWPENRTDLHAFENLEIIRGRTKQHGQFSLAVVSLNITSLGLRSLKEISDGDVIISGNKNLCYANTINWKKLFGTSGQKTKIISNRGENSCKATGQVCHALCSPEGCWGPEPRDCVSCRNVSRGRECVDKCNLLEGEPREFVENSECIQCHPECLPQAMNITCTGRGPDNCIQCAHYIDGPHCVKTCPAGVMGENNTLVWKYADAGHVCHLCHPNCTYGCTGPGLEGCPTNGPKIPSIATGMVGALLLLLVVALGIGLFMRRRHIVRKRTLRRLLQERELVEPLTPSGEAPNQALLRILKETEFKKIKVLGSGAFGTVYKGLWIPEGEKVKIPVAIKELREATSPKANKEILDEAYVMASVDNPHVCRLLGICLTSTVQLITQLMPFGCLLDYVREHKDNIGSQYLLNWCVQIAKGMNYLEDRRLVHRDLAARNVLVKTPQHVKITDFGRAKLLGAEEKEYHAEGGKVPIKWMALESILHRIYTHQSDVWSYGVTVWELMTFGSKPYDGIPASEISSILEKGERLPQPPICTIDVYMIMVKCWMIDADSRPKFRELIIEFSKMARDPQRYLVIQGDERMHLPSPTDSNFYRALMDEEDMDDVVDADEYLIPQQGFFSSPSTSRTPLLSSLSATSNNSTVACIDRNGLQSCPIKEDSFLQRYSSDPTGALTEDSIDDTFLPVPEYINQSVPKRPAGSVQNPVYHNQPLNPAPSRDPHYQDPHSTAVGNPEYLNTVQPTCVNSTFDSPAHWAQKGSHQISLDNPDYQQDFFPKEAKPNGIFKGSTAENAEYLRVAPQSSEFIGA
# note: boundary value 20 nM maps to not satisfied; IC50 below it maps to satisfied

Use the examples below as a reference point.
C=CC(=O)NCCCSc1nc(-c2ccc(F)cc2)c(-c2ccnc(Nc3ccccc3)c2)[nH]1 | not satisfied
C=CC(=O)Nc1cccc(Nc2cc(-c3[nH]c(SC)nc3-c3ccc(F)cc3)ccn2)n1 | satisfied
C=CC(=O)Nc1ccc(OC)c(Nc2cc(-c3[nH]c(SC)nc3C3CCCC3)ccn2)c1 | satisfied
CCC(=O)Nc1ccc(OC)c(Nc2cc(-c3[nH]c(CCCO)nc3-c3ccc(F)cc3)ccn2)c1 | satisfied
C=CC(=O)NCCSc1nc(-c2ccc(F)cc2)c(-c2ccnc(Nc3ccccc3)c2)[nH]1 | satisfied
C=CC(=O)N1CCC(Sc2nc(-c3ccc(F)cc3)c(-c3ccnc(Nc4ccccc4)c3)[nH]2)C1 (stereo not drawn) | not satisfied
C=CC(=O)Nc1ccc(OC)c(Nc2cc(-c3[nH]c(SC)nc3C3CC3)ccn2)c1 | satisfied
C=CC(=O)NCc1cccc(Nc2cc(-c3[nH]c(SC)nc3-c3ccc(F)cc3)ccn2)c1 | satisfied
C=CC(=O)Nc1ccc(OC)c(Nc2cc(-c3[nH]c(SC)nc3-c3cccs3)ccn2)c1 | satisfied
C=CC(=O)Nc1ccc(OC)c(Nc2cc(-c3[nH]c(SC)nc3-c3ccc4ccccc4c3)ccn2)c1 | satisfied

Q. Consider "C=CC(=O)NCc1cn(Cc2cccc(Nc3cc(-c4[nH]c(SC)nc4-c4ccc(F)cc4)ccn3)c2)nn1" . Does its IC50 lie strictly below 20 nM?
A. not satisfied

Q. Consider "CC(=O)CCCSc1nc(-c2ccc(F)cc2)c(-c2ccnc(Nc3ccccc3)c2)[nH]1" . Does its IC50 lie strictly below 20 nM?
A. not satisfied

Q. Consider "C=CC(=O)NCCSc1nc(-c2ccccc2)c(-c2ccnc(Nc3ccccc3)c2)[nH]1" . Does its IC50 lie strictly below 20 nM?
A. satisfied

Q. Consider "C=CC(=O)Nc1ccc(OC)c(Nc2cc(-c3[nH]c(SC)nc3C3CCC3)ccn2)c1" . Does its IC50 lie strictly below 20 nM?
A. satisfied

Q. Consider "C=CC(=O)Nc1ccc(OC)c(Nc2cc(-c3[nH]c(SC)nc3C)ccn2)c1" . Does its IC50 lie strictly below 20 nM?
A. satisfied

Q. Consider "C=CC(=O)Nc1cccc(Nc2cc(-c3[nH]c(SCCNC(=O)CC)nc3-c3ccccc3)ccn2)c1" . Does its IC50 lie strictly below 20 nM?
A. satisfied

Q. Consider "N#CCCSc1nc(-c2ccc(F)cc2)c(-c2ccnc(Nc3ccccc3)c2)[nH]1" . Does its IC50 lie strictly below 20 nM?
A. not satisfied

Q. Consider "C=CC(=O)NCCSc1nc(-c2ccc(F)c(C(F)(F)F)c2)c(-c2ccnc(Nc3ccccc3)c2)[nH]1" . Does its IC50 lie strictly below 20 nM?
A. not satisfied

----------
system.under.test: Epidermal growth factor receptor (Homo sapiens, UniProt P00533, L858R/T790M)
Sequence (P00533 whole entry T790M/L858R, looked up): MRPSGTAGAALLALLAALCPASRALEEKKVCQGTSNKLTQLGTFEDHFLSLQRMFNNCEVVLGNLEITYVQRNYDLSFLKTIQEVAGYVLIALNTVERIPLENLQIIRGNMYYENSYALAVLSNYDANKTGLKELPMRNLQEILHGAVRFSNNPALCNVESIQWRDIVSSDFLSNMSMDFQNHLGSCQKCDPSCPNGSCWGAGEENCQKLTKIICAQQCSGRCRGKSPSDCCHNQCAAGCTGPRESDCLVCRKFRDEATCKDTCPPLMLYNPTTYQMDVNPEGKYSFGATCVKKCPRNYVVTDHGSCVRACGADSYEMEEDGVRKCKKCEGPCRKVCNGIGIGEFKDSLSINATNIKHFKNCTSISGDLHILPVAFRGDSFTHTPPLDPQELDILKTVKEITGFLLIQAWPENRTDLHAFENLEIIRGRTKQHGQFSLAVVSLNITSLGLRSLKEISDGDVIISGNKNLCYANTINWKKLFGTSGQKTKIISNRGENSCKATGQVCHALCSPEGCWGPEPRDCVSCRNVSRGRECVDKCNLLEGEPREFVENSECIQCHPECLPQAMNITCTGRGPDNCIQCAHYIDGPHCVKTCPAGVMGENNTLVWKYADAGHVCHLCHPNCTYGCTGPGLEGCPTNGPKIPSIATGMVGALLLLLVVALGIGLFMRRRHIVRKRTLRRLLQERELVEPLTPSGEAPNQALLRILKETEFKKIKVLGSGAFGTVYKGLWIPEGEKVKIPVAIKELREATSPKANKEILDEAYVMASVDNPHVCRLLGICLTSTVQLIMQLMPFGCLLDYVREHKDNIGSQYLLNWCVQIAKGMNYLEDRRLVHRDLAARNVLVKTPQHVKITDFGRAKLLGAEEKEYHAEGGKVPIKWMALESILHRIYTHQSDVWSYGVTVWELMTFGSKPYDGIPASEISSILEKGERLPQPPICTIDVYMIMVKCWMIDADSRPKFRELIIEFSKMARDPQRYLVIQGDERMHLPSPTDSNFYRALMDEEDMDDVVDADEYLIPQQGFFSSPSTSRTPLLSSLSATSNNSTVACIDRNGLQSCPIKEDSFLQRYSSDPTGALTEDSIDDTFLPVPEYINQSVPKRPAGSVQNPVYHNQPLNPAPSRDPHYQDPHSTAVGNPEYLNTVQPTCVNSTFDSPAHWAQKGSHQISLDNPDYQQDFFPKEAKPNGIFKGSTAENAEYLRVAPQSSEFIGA
quantity: Ki (nM)
# output: bare number, implied unit nM

C=CC(=O)Nc1ccc(OC)c(Nc2cc(-c3[nH]c(CCCO)nc3-c3ccc(F)cc3)ccn2)c1 | 0.1

Moving on to the next molecule.
Sample "C=CC(=O)NCCSc1nc(-c2ccc(F)cc2)c(-c2ccnc(Nc3ccccc3)c2)[nH]1" , system: Epidermal growth factor receptor (Homo sapiens, UniProt P00533, L858R/T790M). Its Ki is 6

----------
Target or system Epidermal growth factor receptor (Homo sapiens, UniProt P00533, L858R): recorded IC50 listed per item.

Fc1ccc(-c2nc(SCCN3CCOCC3)[nH]c2-c2ccnc(Nc3ccccc3)c2)cc1 | 75 nM

Moving on to the next molecule.
# IC50 of "NCCSc1nc(-c2ccc(F)cc2)c(-c2ccnc(Nc3ccccc3)c2)[nH]1" = 2.6 nM

----------
Target or system Epidermal growth factor receptor (Homo sapiens, UniProt P00533, L858R): recorded IC50 listed per item.
# output: bare number, implied unit nM

NCCCSc1nc(-c2ccc(F)cc2)c(-c2ccnc(Nc3ccccc3)c2)[nH]1 | 12
CN(C)C/C=C/C(=O)NCCSc1nc(-c2ccc(F)cc2)c(-c2ccnc(Nc3ccccc3)c2)[nH]1 | 1.9
CCC(=O)NCCSc1nc(-c2ccc(F)cc2)c(-c2ccnc(Nc3ccccc3)c2)[nH]1 | 3.2

Moving on to the next molecule.
# IC50 of "CCC(=O)Nc1ccc(OC)c(Nc2cc(-c3cnc(SC)[nH]3)ccn2)c1" = 360

----------
Examples of compounds with documented metabolised at 4 h, 100 µM follow.
experimental.protocol: Drug degradation in human liver microsomes at 100 uM preincubated for 5 mins with NADPH-regenerating system followed by liver microsomes addition measured after 240 mins by LC-MS analysis
Assay type: ADME, microsome
condition.label: read-out: Drug degradation
# output: bare number, implied unit %

Below, each entry is followed by its recorded metabolised at 4 h, 100 µM result.
C=CC(=O)Nc1cc(Nc2cc(-c3[nH]c(SC)nc3-c3ccc(F)cc3)ccn2)cc(N2CCN(C)CC2)c1 | 27
C=CC(=O)Nc1ccc(OC)c(Nc2cc(-c3[nH]c(CCCO)nc3-c3ccc(F)cc3)ccn2)c1 | 9

Moving on to the next compound.
# metabolised at 4 h, 100 µM of "C=CC(=O)Nc1ccc(OC)c(Nc2cc(-c3[nH]c(SC)nc3-c3ccc(F)cc3)ccn2)c1" = 23

----------
Examples of compounds with documented IC50 follow.
system.under.test: Epidermal growth factor receptor (Homo sapiens, UniProt P00533, C797S/L858R/T790M)
Sequence (P00533 25-1210 T790M/C797S/L858R limits assumed): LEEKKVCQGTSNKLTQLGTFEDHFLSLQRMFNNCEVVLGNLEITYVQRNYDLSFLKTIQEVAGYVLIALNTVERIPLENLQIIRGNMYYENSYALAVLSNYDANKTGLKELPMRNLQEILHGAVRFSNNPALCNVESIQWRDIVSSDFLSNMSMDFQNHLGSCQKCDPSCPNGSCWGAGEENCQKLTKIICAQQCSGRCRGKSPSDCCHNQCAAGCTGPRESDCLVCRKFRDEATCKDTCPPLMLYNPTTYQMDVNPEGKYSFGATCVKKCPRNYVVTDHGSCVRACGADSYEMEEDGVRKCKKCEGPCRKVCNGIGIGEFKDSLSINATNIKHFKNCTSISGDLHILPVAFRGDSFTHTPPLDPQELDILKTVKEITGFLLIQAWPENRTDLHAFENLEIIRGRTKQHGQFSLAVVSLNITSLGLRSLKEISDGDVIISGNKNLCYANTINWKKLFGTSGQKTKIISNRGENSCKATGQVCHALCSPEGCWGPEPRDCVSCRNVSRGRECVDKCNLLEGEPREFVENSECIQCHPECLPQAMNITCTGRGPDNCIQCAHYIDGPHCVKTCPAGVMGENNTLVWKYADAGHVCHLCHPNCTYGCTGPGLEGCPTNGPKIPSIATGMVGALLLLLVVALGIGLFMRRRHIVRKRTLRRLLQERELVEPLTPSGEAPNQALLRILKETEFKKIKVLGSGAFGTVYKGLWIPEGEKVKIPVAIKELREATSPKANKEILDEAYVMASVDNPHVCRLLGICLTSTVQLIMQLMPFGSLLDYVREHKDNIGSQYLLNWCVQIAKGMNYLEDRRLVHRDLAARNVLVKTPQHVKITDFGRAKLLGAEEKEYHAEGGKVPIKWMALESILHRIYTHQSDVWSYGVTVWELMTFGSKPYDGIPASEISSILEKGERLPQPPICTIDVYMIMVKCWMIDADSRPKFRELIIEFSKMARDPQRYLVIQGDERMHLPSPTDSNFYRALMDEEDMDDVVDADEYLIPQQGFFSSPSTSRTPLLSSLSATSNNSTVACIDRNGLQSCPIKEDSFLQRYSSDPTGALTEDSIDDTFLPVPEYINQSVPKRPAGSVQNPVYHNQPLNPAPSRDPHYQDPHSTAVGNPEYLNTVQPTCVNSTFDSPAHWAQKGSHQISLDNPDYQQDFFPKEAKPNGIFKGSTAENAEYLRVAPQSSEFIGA
experimental.protocol: Inhibition of human EGFR T790M/C797S/L858R triple mutant preincubated for 20 mins followed by [33P]ATP addition measured after 2 hrs
Hey, just the number and the unit after it is fine.

Below, each entry is followed by its recorded IC50 result.
C=CC(=O)Nc1ccc(OC)c(Nc2cc(-c3[nH]c(CCCO)nc3-c3ccc(F)cc3)ccn2)c1 | 8 nM
C=CC(=O)Nc1cc(Nc2cc(-c3[nH]c(SC)nc3-c3ccc(F)cc3)ccn2)cc(N2CCN(C)CC2)c1 | 11 nM
CCC(=O)Nc1ccc(OC)c(Nc2cc(-c3[nH]c(SC)nc3-c3ccc(F)cc3)ccn2)c1 | 167 nM
CCC(=O)Nc1ccc(OC)c(Nc2cc(-c3[nH]c(CCCO)nc3-c3ccc(F)cc3)ccn2)c1 | 7 nM
C=CC(=O)Nc1cc(Nc2cc(-c3[nH]c(SC)nc3-c3ccc(F)cc3)ccn2)cc(N2CCOCC2)c1 | 53 nM

Moving on to the next compound.
# IC50 of "CCC(=O)Nc1cccc(Nc2cc(-c3[nH]c(SC)nc3-c3ccc(F)cc3)ccn2)c1" = 223 nM

----------
system.under.test: Epidermal growth factor receptor (Homo sapiens, UniProt P00533, L858R)
quantity: IC50 (nM)
# output: bare number, implied unit nM

OCCSc1nc(-c2ccc(F)cc2)c(-c2ccnc(Nc3ccccc3)c2)[nH]1 | 1.1
CSc1nc(-c2ccc(F)cc2)c(-c2ccnc(Nc3ccccc3)c2)[nH]1 | 2.5
CSc1nc(-c2ccc(F)cc2)c(-c2ccnc(Nc3cc(F)cc([N+](=O)[O-])c3)c2)[nH]1 | 55

Moving on to the next molecule.
Sample "C=CC(=O)Nc1ccc(OC)c(Nc2cc(-c3cnc(SC)[nH]3)ccn2)c1" , system: Epidermal growth factor receptor (Homo sapiens, UniProt P00533, L858R). Its IC50 is 5.6

----------
system.under.test: Epidermal growth factor receptor (Homo sapiens)
Examples of molecules with documented pIC50 follow.
By convention, pIC50 is the negative base-10 log of a molar concentration.

Below, each entry is followed by its recorded pIC50 result.
C=CC(=O)NCCSc1nc(-c2ccc(F)c(C(F)(F)F)c2)c(-c2ccnc(Nc3ccccc3)c2)[nH]1 | 7.35
CSc1nc(-c2ccc(F)cc2)c(-c2ccnc(Nc3cc(N4CCN(C)CC4)cc([N+](=O)[O-])c3)c2)[nH]1 | 8.68
C=CC(=O)Nc1ccc(OC)c(Nc2cc(-c3cnc(SC)[nH]3)ccn2)c1 | 7.77

Sample "OCCSc1nc(-c2ccc(F)cc2)c(-c2ccnc(Nc3ccccc3)c2)[nH]1" , system: Epidermal growth factor receptor (Homo sapiens). Its pIC50 is 7.96

Sample "CSc1nc(-c2ccc(F)cc2)c(-c2ccnc(Nc3cc(F)cc([N+](=O)[O-])c3)c2)[nH]1" , system: Epidermal growth factor receptor (Homo sapiens). Its pIC50 is 6.58

Sample "NCCCSc1nc(-c2ccc(F)cc2)c(-c2ccnc(Nc3ccccc3)c2)[nH]1" , system: Epidermal growth factor receptor (Homo sapiens). Its pIC50 is 7.26

Sample "Fc1ccc(-c2nc(SCCN3CCOCC3)[nH]c2-c2ccnc(Nc3ccccc3)c2)cc1" , system: Epidermal growth factor receptor (Homo sapiens). Its pIC50 is 6.74

Sample "CN(C)C/C=C/C(=O)NCCSc1nc(-c2ccc(F)cc2)c(-c2ccnc(Nc3ccccc3)c2)[nH]1" , system: Epidermal growth factor receptor (Homo sapiens). Its pIC50 is 8.57

Sample "CCC(=O)NCCSc1nc(-c2ccc(F)cc2)c(-c2ccnc(Nc3ccccc3)c2)[nH]1" , system: Epidermal growth factor receptor (Homo sapiens). Its pIC50 is 7.48

Recorded values, source ChEMBL document CHEMBL4011631.
